# credit: ChEMBL document CHEMBL1909537

TESTED_SYSTEM: Cannabinoid receptor 2 (Homo sapiens)
Sequence (P34972 whole entry): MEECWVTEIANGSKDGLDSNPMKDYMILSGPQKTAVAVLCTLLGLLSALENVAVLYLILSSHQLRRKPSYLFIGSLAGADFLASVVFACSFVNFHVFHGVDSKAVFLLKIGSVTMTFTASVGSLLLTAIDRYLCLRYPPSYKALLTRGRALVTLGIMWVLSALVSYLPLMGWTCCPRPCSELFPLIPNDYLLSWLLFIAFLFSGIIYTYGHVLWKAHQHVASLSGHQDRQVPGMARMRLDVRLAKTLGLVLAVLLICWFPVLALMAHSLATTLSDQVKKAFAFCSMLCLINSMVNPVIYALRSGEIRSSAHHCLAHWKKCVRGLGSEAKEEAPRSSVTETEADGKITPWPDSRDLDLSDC
EXPERIMENT_SUMMARY: Displacement of [3H]CP-55,940 from recombinant human CB2 receptor expressed in HEK cells
pKi: −log10 of the molar value.
Please assign a class to every record based on measured pKi, with ranges low bracket (below 7), middle bracket (7 to below 8), high bracket (8 or more)

> print(dat)
                                 smiles.str           class
1  CCc1ccc(CC)n1-c1c(C)c(C(=O)NCc2ccc(Cl)c(Cl)c2)nn1-c1ccc(Cl)c(Cl)c1     low bracket
2  CCc1c(C(=O)NC2CCCCC2)nn(-c2ccc(Cl)c(Cl)c2)c1-n1cccc1    high bracket
3  CCc1c(C(=O)NCc2ccc(Cl)c(Cl)c2)nn(-c2ccc(Cl)cc2Cl)c1-n1c(C)ccc1C  middle bracket
4  Cc1c(C(=O)NC2CCCCC2)nn(-c2ccc(Cl)cc2Cl)c1-n1cccc1Cl  middle bracket
5  Cc1c(C(=O)NC2CCCCC2)nn(-c2ccc(Cl)cc2Cl)c1-n1c(Cl)ccc1Cl  middle bracket
6  Cc1c(C(=O)NC2CCCCC2)nn(-c2ccc(Cl)c(Cl)c2)c1-n1c(Cl)ccc1Cl    high bracket
7  Cc1c(C(=O)NC2CCCCC2)nn(-c2ccc(Cl)cc2Cl)c1-n1cc2c(c1)CCCC2     low bracket
8  CCc1c(C(=O)NCc2ccc(Cl)c(Cl)c2)nn(-c2ccc(Cl)cc2Cl)c1-n1cccc1     low bracket
9  CCc1c(C(=O)NC2CCCCC2)nn(-c2ccc(Cl)c(Cl)c2)c1-n1c(C)ccc1C    high bracket
